These measurements were taken from patent US20130295102A1.

Reported values of koff for individual entries
- assay_system: T1, Cynomolgus Factor P (cynomolgus)
- T1 construct: Purified from cynomolgus serum for SET/Biacore; Factor P of cynomolgus serum in the functional assays; also called Cyno Factor P; cyno FP
- procedure_text: Biacore SPR, captured Factor P
Write the answer as a number in s⁻¹, unit excluded.

Input: Identify measured koff corresponding to NVS962-S31A (Fab, V domains shown, NVS962 with heavy chain serine 31 replaced with alanine) VH: EVQLVQSGAEVKKPGSSVKVSCKASGGTFNAYAISWVRQAPGQGLEWMGRIIPIFGTANYAQKFQGRVTITADESTSTAYMELSSLRSEDTAVYYCARHGGYSFDSWGQGTLVTVSS VL: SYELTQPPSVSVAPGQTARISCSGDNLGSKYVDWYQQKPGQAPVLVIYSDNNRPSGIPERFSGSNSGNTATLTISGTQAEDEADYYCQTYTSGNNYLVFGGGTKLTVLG
Output: 8.7e-05

***
Input: Please list koff recorded for the binder NVS962-Q (Fab, V domains shown, NVS962 with heavy chain N30 replaced with glutamine (deamidation site removed)) VH: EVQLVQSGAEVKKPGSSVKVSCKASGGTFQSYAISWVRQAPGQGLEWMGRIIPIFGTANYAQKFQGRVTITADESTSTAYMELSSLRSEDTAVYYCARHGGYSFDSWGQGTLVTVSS VL: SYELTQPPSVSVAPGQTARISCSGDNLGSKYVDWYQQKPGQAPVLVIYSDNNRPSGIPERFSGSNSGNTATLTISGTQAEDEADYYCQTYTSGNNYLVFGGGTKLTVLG
Output: 0.000264
